B1: glmS ribozyme (parent)
chain: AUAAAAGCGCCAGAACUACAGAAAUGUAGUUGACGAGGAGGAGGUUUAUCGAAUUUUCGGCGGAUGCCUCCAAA

Variants of: B1
run.description: self-cleavage kobs at 640 uM GlcN6P; higher = faster cleavage; RNA array
test.conditions: with glucosamine-6-phosphate
Fewer inactive variants are shown than the library holds.
The following variants are shown together with reported self-cleavage kobs at 640 uM GlcN6P values.

Example entries and their recorded answers appear below.
mutation_label="U31G A39G A64G" endpoint_value="0.00544 s⁻¹"
mutation_label="G40U G43C C68G" endpoint_value="0.000552 s⁻¹"
mutation_label="G9U U45G A52G" endpoint_value="< 1e-05 s⁻¹"
mutation_label="C10U A14U G32A A42C" endpoint_value="< 1e-05 s⁻¹"

Consider now this further variant.
Quick one: give measured self-cleavage kobs at 640 uM GlcN6P for A64G C68G C71A
< 1e-05 s⁻¹
